- System: rodent lifetime carcinogenesis bioassay, tumor incidence TD50
- assayMethodText: carcinogenic potency in animals, long-term in vivo studies, CPDB compilation (AID 1745844)
- conditionParameters: mouse; strain Charles River CD1; males; in drinking water; site: liver; lesion: all vascular tumors; dosed 52 weeks; study length 52 weeks
measuredAttribute: TD50

## Input Fill in the recorded TD50 for this compound, with rodent lifetime carcinogenesis bioassay, tumor incidence TD50 as test system: `CN(C)N`
## Output 12.6 mg/kg/day

====

- System: rodent lifetime carcinogenesis bioassay, tumor incidence TD50
- assayMethodText: carcinogenic potency in animals, long-term in vivo studies, CPDB compilation (AID 1745844)
- conditionParameters: mouse; strain Swiss albino; females; by gavage; site: liver; lesion: several types; types named in the paper; dosed 53 weeks; study length 127 weeks
measuredAttribute: TD50

## Input Fill blank: measured TD50 of the compound `CC(C)C/C=N/N(C)C=O` is ____.
## Output 7.9 mg/kg/day
